target: human PAD4 (Homo sapiens, UniProt Q9UM07); construct: human PAD4 (NM_012387), A2P663, was PCR amplified; His-SUMO (N, cleaved yes); test: In vitro PAD4 BAEE biochemical assay; settings: human PAD4, BAEE substrate; 5 nM PAD4, 2 mM calcium chloride, 3 mM BAEE; geometric mean of multiple experiments
Sequence (Q9UM07 2-663): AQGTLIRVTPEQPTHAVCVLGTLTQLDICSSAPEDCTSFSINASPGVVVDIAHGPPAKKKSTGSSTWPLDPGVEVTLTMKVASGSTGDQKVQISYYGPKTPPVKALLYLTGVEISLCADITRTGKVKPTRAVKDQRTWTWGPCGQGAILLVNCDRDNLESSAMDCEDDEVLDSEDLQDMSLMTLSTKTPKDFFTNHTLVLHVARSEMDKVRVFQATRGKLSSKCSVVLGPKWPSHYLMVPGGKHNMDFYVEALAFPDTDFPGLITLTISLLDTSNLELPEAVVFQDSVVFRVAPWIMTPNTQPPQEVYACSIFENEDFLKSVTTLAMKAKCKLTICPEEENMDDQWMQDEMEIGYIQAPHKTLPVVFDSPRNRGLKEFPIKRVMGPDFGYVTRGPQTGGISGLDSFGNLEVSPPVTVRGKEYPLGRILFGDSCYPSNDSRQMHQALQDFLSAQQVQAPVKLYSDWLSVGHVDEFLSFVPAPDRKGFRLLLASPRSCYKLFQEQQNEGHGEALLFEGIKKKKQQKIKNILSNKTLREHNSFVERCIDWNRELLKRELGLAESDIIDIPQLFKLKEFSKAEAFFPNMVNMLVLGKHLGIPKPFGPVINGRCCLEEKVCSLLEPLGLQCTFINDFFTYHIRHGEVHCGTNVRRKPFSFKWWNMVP
pIC50: −log10 of the molar value.
Experimental readout: pIC50

> print(dat)
                                   compound  experimental.readout  endpoint.value
1  Cc1c(-c2cc3ccc(N(C(F)F)S(C)(=O)=O)nc3n2CC2CC2)nc2cc(C(=O)N3CCC[C@@H](N)C3)cc([S+](C)[O-])n12 (stereo partly drawn)                 pIC50            4.74
2  COc1cc(C(=O)N2[C@H]3CC[C@@H]2[C@H](N)C3)cc2nc(-c3cc4ccc(N5c6ccccc6CCS5(=O)=O)nc4n3CC3CC3)c(C)n12                 pIC50            6.62
3  CS(=O)(=O)N(c1ccc2cc(-c3nc4cc(C(=O)N5[C@@H]6CC[C@@H](N)[C@H]5CC6)ccn4c3CC3CC3)n(CC3CC3)c2n1)C(F)F                 pIC50            6.69

1 = COc1cc(C(=O)N2C[C@H]3CC[C@@H]2[C@H](N)C3)cc2nc(-c3cc4ccc(N(C(F)F)S(C)(=O)=O)nc4n3CC3CC3)c(C)n12 [Example 376]
2 = COc1cc(C(=O)N2CCC[C@@H](N)C2)cc2nc(-c3cc4ccc([C@H](C)CC(=O)N(C)C)nc4n3CC3CC3)c(C)n12
3 = COc1cc(C(=O)N2[C@H]3CC[C@@H]2[C@H](N)C3)cc2nc(-c3cc4ccc(C5CCNC(=O)C5)nc4n3CC3CC3)c(C)n12 (stereo partly drawn)
4 = COc1cc(C(=O)N2CCC[C@@H](N)C2)cc2nc(-c3cc4ccc(OCC(=O)N(C)C)nc4n3CC3CC3)c(C)n12
Problem: rank_up(items): orders items by reported pIC50 in ascending numerical order. Would you mind listing the labels in the order asked for?
Solution: 4, 1, 2, 3
